Data provenance: PubChem BioAssay

systemName: Alpha-2C adrenergic receptor (Homo sapiens)
assayDetails: modulators of alpha2C/GIRK thallium flux, primary screen, cell-based, HEK293 alpha2C/GIRK1/2 (AID 624);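 also: slope of fluorescence ratio to pre-addition baseline per second over 15 to 24 s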
condition: thallium flux BTC fluorescence, at 10 µM, actives lie on both sides
metric: slope
Form rule: numeric answer, no unit written next to it.

Data request: Reported slope, compound Clc1ccc(C2=Nn3c(nnc3-c3n[nH]c4c3CCC4)SC2)cc1Cl : ____
Data returned: 0.00652

Data request: Reported slope, compound O=C(CSc1nnc2ccccn12)NCCN1C(=O)CSC1=O : ____
Data returned: 0.00611

Data request: Reported slope, compound Cc1cccc(CCNC(=O)C2CCCN(S(=O)(=O)c3cnc[nH]3)C2)c1 (stereo unspecified) : ____
Data returned: 0.0065

Data request: Reported slope, compound COCCCNC(=O)c1ccccc1NS(=O)(=O)c1ccc(C)cc1 : ____
Data returned: 0.00558

Data request: Reported slope, compound Clc1ccc2c(c1)[C@H]1OCC[C@H]1[C@@H](c1ccco1)N2 : ____
Data returned: 0.00552

Data request: Reported slope, compound CC(=O)Nc1ccc(N=Cc2nc(-c3ccc(C)cc3)oc2O)cc1 : ____
Data returned: 0.00463

Data request: Reported slope, compound CCOC(=O)C1=C(c2ccccc2)N2CCN=C2S1 : ____
Data returned: 0.00413

Data request: Reported slope, compound CCCCOC(=O)c1[nH]c2c(c1C)C(=O)CC(c1cc(OC)c(OC)c(OC)c1)C2 (stereo unspecified) : ____
Data returned: 0.00591

Data request: Reported slope, compound CCOC(=O)c1ccc(Oc2nc(SC)nc(N(C)C)n2)cc1 : ____
Data returned: 0.00652

Data request: Reported slope, compound COC(=O)c1c(N)sc(C(=O)N2CCOCC2)c1C : ____
Data returned: 0.00581

Data request: Reported slope, compound Cn1c(=O)[nH]c(=O)c2c1nc(N1CCNCC1)n2CCOc1ccccc1 : ____
Data returned: 0.00611

---

assayDetails: inhibitors of E-selectin induction by TNFa, primary screen, imaging, HUVEC, immunofluorescence, MLSMR starter and 10KST1 sets (AID 487);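 also: signal is fraction of cell area covered by stained E-selectin grains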
condition: HUVEC TNFalpha-induced E-selectin immunofluorescence imaging, at 2 µM; hits give high values
Give measured inhibition for each item. Keep answers brief.
Quick note: give the figure in %, leave out the unit.

Data request: Reported inhibition, compound CCCCC(=O)NCCc1cc2c(C)ccc(C)c2[nH]c1=O : ____
Data returned: -13.4

Data request: Reported inhibition, compound COc1ccc(C)cc1S(=O)(=O)Nc1cccnc1 : ____
Data returned: -61.4

Data request: Reported inhibition, compound O=S(=O)(c1ccccc1)N(CC(O)CN1CCCCC1)c1ccccc1 (stereo unspecified) : ____
Data returned: 36.6

Data request: Reported inhibition, compound O=C(NC1CCN(Cc2nnnn2CCc2ccccc2)CC1)c1ccccc1F : ____
Data returned: -44.2

Data request: Reported inhibition, compound CC(C)CSc1nc2ccccc2n1CC(N)=O : ____
Data returned: 33.6

Data request: Reported inhibition, compound CCn1c(SCC(=O)Nc2ccccc2C(=O)OC)nnc1-c1ccc(N)cc1 : ____
Data returned: 7.2

Data request: Reported inhibition, compound CN(C)CCN1C(=O)c2oc3ccc(Cl)cc3c(=O)c2C1c1cccc(Br)c1 (stereo unspecified) : ____
Data returned: -36.3

Data request: Reported inhibition, compound CCCSc1nc2c(cnn2-c2ccc(Cl)cc2)c(=O)[nH]1 : ____
Data returned: -40.2

Data request: Reported inhibition, compound Cc1ccc(C(=O)/C=C/Nc2ccccn2)cc1 : ____
Data returned: -98.9

Data request: Reported inhibition, compound Cc1cc(C)n(-c2nc3nonc3nc2-n2nc(C)cc2C)n1 : ____
Data returned: -20.5

Data request: Reported inhibition, compound COC(=O)c1ccc(C2/C(=C(\O)c3ccc(OC)c(C)c3)C(=O)C(=O)N2c2cc(C)on2)cc1 (stereo unspecified) : ____
Data returned: -48.1
